Conditions: in tributyl phosphate, 308.15 K
endpoint name: solubility (mole fraction)

chemical smiles: O=C(O)c1ccccc1
endpoint result: 0.553

====

Conditions: in methyl acetate, 313.15 K

chemical smiles: O=C(O)c1ccccc1
solubility (mole fraction): 0.26

====

Details: in diacetone alcohol, 303.15 K

chemical smiles: O=C(O)c1ccccc1
solubility (mole fraction): 0.306

====

Conditions: in 2-pentanone, 288.15 K
endpoint name: solubility (mole fraction)

chemical smiles: O=C(O)c1ccccc1
endpoint result: 0.18

====

Details: in isooctane, 323.15 K

chemical smiles: O=C(O)c1ccccc1
solubility (mole fraction): 0.031

====

Conditions: in diacetone alcohol, 323.15 K
endpoint name: solubility (mole fraction)

chemical smiles: O=C(O)c1ccccc1
endpoint result: 0.396
